Test: Metabolic stability in rat plasma assessed as compound remaining after 120 mins by HPLC analysis
Type: ADME, cell-free
Conditions: read-out: Stability
measurement-label: remaining at 2 h (%)

Take a look at these entries with their results.
- CC(C)(C)C(=O)OCOC(=O)Cc1ccccc1Nc1c(Cl)cccc1Cl: 0
- CC(=O)OCCOC(=O)Cc1ccccc1Nc1c(Cl)cccc1Cl: 0

A = CC(C)OC(=O)OCOC(=O)Cc1ccccc1Nc1c(Cl)cccc1Cl
B = O=C([O-])Cc1ccccc1Nc1c(Cl)cccc1Cl.[Na+] [DICLOFENAC SODIUM]
When their remaining at 2 h values are compared, which is larger, A or B ? To answer, give the label that identifies your chosen option.
B

---

Assay: Metabolic stability in rat plasma assessed as compound remaining after 60 mins by HPLC analysis
Format: ADME, cell-free
Conditions: read-out: Stability
measurement-label: remaining at 1 h (%)

Take a look at these entries with their results.
• CC(C)(C)C(=O)OCOC(=O)Cc1ccccc1Nc1c(Cl)cccc1Cl = 0
• CC(=O)OCCOC(=O)Cc1ccccc1Nc1c(Cl)cccc1Cl = 0

a = CC(C)OC(=O)OCOC(=O)Cc1ccccc1Nc1c(Cl)cccc1Cl
b = O=C([O-])Cc1ccccc1Nc1c(Cl)cccc1Cl.[Na+] [DICLOFENAC SODIUM]
When their remaining at 1 h values are compared, which is larger, a or b ? To answer, give the label that identifies your chosen option.
b
(b: 86.2%, a: 0%)

---

Assay: Metabolic stability in rat liver microsomes assessed as compound remaining after 30 mins by HPLC analysis
Type: ADME, Microsome
Conditions: read-out: Stability
measurement-label: remaining at 0.5 h (%)

Take a look at these entries with their results.
- O=C([O-])Cc1ccccc1Nc1c(Cl)cccc1Cl.[Na+] [DICLOFENAC SODIUM]: 84.4
- CC(C)OC(=O)OCOC(=O)Cc1ccccc1Nc1c(Cl)cccc1Cl: 2.2

P = CC(C)(C)C(=O)OCOC(=O)Cc1ccccc1Nc1c(Cl)cccc1Cl
Q = CC(=O)OCCOC(=O)Cc1ccccc1Nc1c(Cl)cccc1Cl
When their remaining at 0.5 h values are compared, which is larger, P or Q ? To answer, give the label that identifies your chosen option.
P
(P: 2.5%, Q: 0%)

---

Assay: Metabolic stability in rat liver microsomes assessed as compound remaining after 60 mins by HPLC analysis
Format: ADME, Microsome
Conditions: read-out: Stability
measurement-label: remaining at 1 h (%)

* CC(=O)OCCOC(=O)Cc1ccccc1Nc1c(Cl)cccc1Cl | 0
* CC(C)OC(=O)OCOC(=O)Cc1ccccc1Nc1c(Cl)cccc1Cl | 1.2

I = CC(C)(C)C(=O)OCOC(=O)Cc1ccccc1Nc1c(Cl)cccc1Cl
II = O=C([O-])Cc1ccccc1Nc1c(Cl)cccc1Cl.[Na+] [DICLOFENAC SODIUM]
When their remaining at 1 h values are compared, which is larger, I or II ? To answer, give the label that identifies your chosen option.
II

---

Test: physchem
Settings: octanol/0.2 M phosphate buffer, pH 7.4
measurement-label: logD

* CC(C)(C)C(=O)OCOC(=O)Cc1ccccc1Nc1c(Cl)cccc1Cl | 3.72

I = CC(=O)OCCOC(=O)Cc1ccccc1Nc1c(Cl)cccc1Cl
II = CC(C)OC(=O)OCOC(=O)Cc1ccccc1Nc1c(Cl)cccc1Cl
Smaller logD value? Options are I and II To answer, give the label that identifies your chosen option.
II
(II: 2.46, I: 4.57)
